Each recorded value in this set is attributed to the supplement of paper PMC10567573.

Assay: protein stability index of a GFP-peptide fusion (GPS, HEK-293T) (PSI 1-6); higher = more stable;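 note: 24-mer peptide tiles fused after GFP, lentivirally expressed, FACS-sorted into six equal bins by GFP/DsRed ratio, decoded by Illumina sequencing, PSI is the read-weighted mean bin number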
Conditions: treatment: MLN4924 1 uM, 8 h; c terminus: a fixed tail appended
Record form. Attribute: protein stability index. Fill in for each entry.
One number for each entry.

[
  {
    "chain": "NSEADQLGKIFDLIGLPPEDDWPR [CDK4]",
    "quantity": "protein stability index",
    "meas_value": 3.92
  },
  {
    "chain": "PTYGRSFTLASSSDTRVGAPATGS [CHIT1]",
    "quantity": "protein stability index",
    "meas_value": 4.12
  },
  {
    "chain": "EYVEKETQEKKRLSRTNEELLWKL [MTUS2]",
    "quantity": "protein stability index",
    "meas_value": 4.17
  },
  {
    "chain": "AENSPYLNPQLVQPAKKPLLWSDP [ESRRG]",
    "quantity": "protein stability index",
    "meas_value": 3.81
  },
  {
    "chain": "EKLCIYTDNSIKPQELLEWELVVL [CCND2]",
    "quantity": "protein stability index",
    "meas_value": 2.62
  },
  {
    "chain": "SFGWSDRAKVKTDDIARIYQPKRY [FAM98B]",
    "quantity": "protein stability index",
    "meas_value": 2.99
  }
]

# batch: return protein stability index for each of the 3 sequences below
1. NQGFLKVERYHNLCQKQVKAQLPR [FBXO28]
2. INLPVEEFNELLSKYQLSEAQLSL [NFE2L1]
3. AYPFYWAWLPQAKVPFSQEIKDLI [PI4K2A]

Solution:
[2.64, 2.51, 2.13]

====

Assay: protein stability index of a GFP-peptide fusion (GPS, HEK-293T) (PSI 1-6); higher = more stable
Conditions: treatment: DMSO; c terminus: a fixed tail appended
quantity: protein stability index
Answers are plain numbers.

[
  {
    "chain": "ISNGDFESYTKMCDPGMTAFEPEA [CAMK2A]",
    "meas_value": 4.48
  },
  {
    "chain": "NQLSQAELDELASKAPVLTYGQPK [EFHC1]",
    "meas_value": 4.78
  },
  {
    "chain": "EQATSLAILRVIRLVRVFRIFKLS [KCNA1]",
    "meas_value": 2.42
  }
]

Parameters: items (list). Returns: protein stability index for each item.
1. SIDFNKDGHIDINEFLEAFRLVEK [PPEF2]
2. VLSILHATLPGIFMLLLIFFAFLH [SOAT2]
3. RMLTDKEREMAEIRDQMQQQLNDY [LMNB1]
4. RLSKELLAEYQDLTFLTKQEILLA [CIB1]
5. LWEALCSQGAISEGAQRDRFPGRK [C22orf31]
6. KPPPRKHTRSWAVLKLLLLLLLFG [LRRC59]
7. PVKSYDYLLKFLLVGDSDVGKGEI [RAB40C]
8. LQIDNARLAADDFRTKFETEQALR [KRT17]

Solution:
1. 2.88
2. 2.87
3. 4.93
4. 2.16
5. 3.11
6. 2.09
7. 2.06
8. 4.03

====

Experiment: protein stability index of a GFP-peptide fusion (GPS, HEK-293T) (PSI 1-6); higher = more stable
Details: treatment: MLN4924 1 uM, 8 h; c terminus: a fixed tail appended
quantity: protein stability index
Numbers only.

Sample answers from the record:
[
  {
    "chain": "MGESSEDIDQMFSTLLGEMDLLTQ [APBB1IP]",
    "meas_value": 4.08
  },
  {
    "chain": "YPCIPNHELVWAKMKGFGFWPAKV [ZMYND11]",
    "meas_value": 2.19
  },
  {
    "chain": "IVHVEKEEVPEGMEEAAVASVVLP [BCL2L13]",
    "meas_value": 5.07
  }
]

Please go through the list and note protein stability index for each sequence.
1. KDYYPINESLASLPLRVSFCPLSL [CLPTM1]
2. YDVEMTDELVGLPFSSHTYSQASE [FBXO34]
3. VKQEEDIKPPPPLVLNSQQSDTLE [RAD54B]
4. HYFPVMKKCCIPETRRRMEMAFNT [NLN]

Solution:
1: 2.15; 2: 4.52; 3: 5.39; 4: 1.84

Working through the 2 sequences below one at a time, give protein stability index for each.
1. VLSILHATLPGIFMLLLIFFAFLH [SOAT2]
2. GIPNAIISVEGINHDIRTANDGDY [CPXM2]

Solution:
[3.17, 4.71]
